Task for the reader: assign each of the following compounds its reported growth inhibition.
Assay: NCI Yeast Anticancer Drug Screen. Data for the rad50 strain (AID 155);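 also: 0% = growth of vehicle-only cultures of the same strain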
Conditions: S. cerevisiae rad50 strain growth inhibition; at 50.0 µM; stronger effect = higher value
The panel holds about 79,000 compounds, 15% with a hit somewhere; the sample as a whole holds those more often.
Give bare numbers, in %.

INSERT INTO results (compound, experimental_endpoint, test_value) VALUES
  ('COCC(Cl)/C(N)=N\S(=O)(=O)c1ccc(Cl)cc1 (stereo not given)', 'growth inhibition', 5.8),
  ('CCc1ccccc1NC(=O)/C=N/O', 'growth inhibition', -27.9),
  ('CCOc1ccccc1N', 'growth inhibition', 8.75),
  ('CCOC(NCc1ccc(OC)c(OC)c1)OCC', 'growth inhibition', 3.6),
  ('COC(=O)c1cccc2ccc3cccc(C=O)c3c12', 'growth inhibition', -29.4),
  ('N#C/C(N)=C(\C#N)N=CN', 'growth inhibition', -5.5),
  ('C[n+]1c(-c2ccc(Cl)c(Cl)c2)c2cc(N)ccc2c2ccccc21', 'growth inhibition', 14.9),
  ('C=C1C(=O)OC2/C=C(/CO)C3(O)CC(O)C(C)(CC(OC(=O)/C(C)=C/C)C12)O3 (stereo not given)', 'growth inhibition', 7.2),
  ('Cc1cc(C(C)(C)C)cc(Cc2cc(C(C)(C)C)cc(Cc3cc(C(C)(C)C)cc(C)c3O)c2O)c1O', 'growth inhibition', -25.8);

Now look at this one.
QUERY: Please look up its growth inhibition: CCC(CCC(=O)c1ccccc1)[N+](=O)[O-] (stereo not given)
RESULT: -3.65

---

Assay: NCI Yeast Anticancer Drug Screen. Data for the rad50 strain (AID 155);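 also: 0% = growth of vehicle-only cultures of the same strain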
Settings: S. cerevisiae rad50 strain growth inhibition; at 50.0 µM; stronger effect = higher value
This is part of a sample that, as a whole, favours compounds with a hit. Of some 79,000 tested, about 15% had one in any assay. The source made the active and inactive calls. Cut-off read from the data, not from the text of the source: active = growth inhibition above about 70%; inactive = the rest.
experimental_endpoint: growth inhibition

Below, each entry is followed by its recorded growth inhibition result.
INSERT INTO assay_data (compound, experimental_endpoint, test_value) VALUES
  ('Cc1ccc(C(=O)C(O)c2ccc(C)cc2)cc1 (stereo not given)', 'growth inhibition', '35.6% (inactive)'),
  ('CC(=O)Nc1ccccc1C', 'growth inhibition', '11.9% (inactive)'),
  ('COC1CCC2(C)C3CCC4C(=CCC5C(C)(C)C(O)CCC45C)CC3(C)CCC2C1(C)C (stereo not given)', 'growth inhibition', '-8.45% (inactive)'),
  ('CCOC(=O)C(C(C)=O)C(CC(=O)OC)NC(=O)OCc1ccccc1 (stereo not given)', 'growth inhibition', '-24.5% (inactive)'),
  ('COc1cc(OC)c2cc(C(=O)c3cccc4ccccc34)c(=O)oc2c1', 'growth inhibition', '1.35% (inactive)');

Okay, here is my list. What is growth inhibition for each of these?
1. CCOC(=O)C1=C(C)Oc2cc3c(cc2C1c1ccc(OC)cc1)OCO3 (stereo not given)
2. CCCCC1CCC(C(=O)O)=NC1 (stereo not given)
3. COc1cc([N+](=O)[O-])ccc1NC(=O)Nc1ccc(Cl)cc1[N+](=O)[O-]
4. NCCOc1ccccn1
5. O=C(C#Cc1ccccc1)N1c2ccccc2CC1c1c[nH]c2ccccc12 (stereo not given)
6. CC1(CN2CCCCC2)COC(c2ccccc2)(c2ccccc2)OC1

RESULT:
1: 3.9% (inactive); 2: 5.65% (inactive); 3: -4.8% (inactive); 4: -1.7% (inactive); 5: -7.25% (inactive); 6: -8.1% (inactive)

Provide each entry's growth inhibition from the list below.
1. CCOC(=O)C1(C)CCCc2sc(N)c(C#N)c21 (stereo not given)
2. Cc1n[nH]c2ccccc2c1=O
3. Cn1c(COc2ccc(/C=N\NC(=O)c3ccc(C(=O)N/N=C/c4ccc(OCc5c[n+]6ccccc6n5C)cc4)cc3)cc2)c[n+]2ccccc12

RESULT:
["-42.4% (inactive)", "-4.85% (inactive)", "-5% (inactive)"]

Each of the following entries comes with a recorded value; kindly state growth inhibition for each.
1. CCOC(=O)CC(C)C(Br)(C(=O)OCC)C(=O)OCC (stereo not given)
2. Cc1ccccc1S(=O)(=O)OC1NS(=O)(=O)c2ccccc21 (stereo not given)

RESULT:
1. 47.5% (inactive)
2. 15.8% (inactive)

Parameters: items (list). Returns: growth inhibition for each item.
1. CN(C)c1nnnn1-c1c(N)n(C)c(=O)n(C)c1=O
2. CN(C)c1nc(=Nc2ccc3c(c2)OCO3)ss1
3. O=c1[nH]c2ccccc2nc1/C=C/NC(=S)Nc1ccccc1
4. CC(=O)c1cccc(NC(=O)/C(=N\NC(=S)NN)C2C(=O)Nc3ccccc3S2=O)c1 (stereo not given)
5. COc1cc(C(C)Cl)ccc1OC(=O)c1ccccc1 (stereo not given)
6. c1ccc(-c2[nH]nc3nc4c(nc23)CCCC4)cc1

RESULT:
-30.1% (inactive)
30.5% (inactive)
-11.4% (inactive)
-3.6% (inactive)
10.8% (inactive)
7.4% (inactive)

# batch size: 7; output growth inhibition per entry
1. O=C(C[n+]1cc(Br)cc(Br)c1)c1ccc(Br)cc1
2. [Cl][Cu][Cl].c1ccc2c(c1)Sc1ccccc1[N+]2=c1ccc2nc3ccccc3sc-2c1
3. Cn1c(COC(=O)Nc2ccccc2)c(COC(=O)Nc2ccccc2)c2ccc3cc(Cl)c(Cl)cc3c21
4. CC(=O)Nc1cc2cc(NS(=O)(=O)c3ccc(Cl)c(Cl)c3)ccc2oc1=O
5. N#Cc1nc(CCC(C(=O)O)N2C(=O)c3ccccc3C2=O)oc1N (stereo not given)
6. O=C(OCCO)c1ccccc1O
7. C=CC(O)C(O)C=C (stereo not given)

RESULT:
1. -16.9% (inactive)
2. 26.1% (inactive)
3. 72.9% (active)
4. 8.35% (inactive)
5. 3.55% (inactive)
6. 2.95% (inactive)
7. 15.1% (inactive)

I need growth inhibition for every entry listed below, if you could help.
1. COC(=O)C1C2C=CC(C1C(=O)O)C1C(Br)=C(Br)C21 (stereo not given)
2. CCOC(CN(C(C)C)C(C)C)OCC
3. O=[N+]([O-])c1ccc(Cl)c(C(F)(F)F)c1
4. CC12CCC3c4ccc(OC(=O)C56C=CC(=O)C5C5C=CC6CC5)cc4CCC3C1CCC2=O (stereo not given)

RESULT:
1: 20.4% (inactive); 2: -16.4% (inactive); 3: -0.8% (inactive); 4: 11.6% (inactive)

Give one value of growth inhibition per listed compound.
1. O=C1CCCCC1C(Nc1ccccc1)c1ccccc1 (stereo not given)
2. CC(C(O)c1ccccn1)[N+](=O)[O-] (stereo not given)

RESULT:
2.95% (inactive)
-11.4% (inactive)
